Would you mind telling me the reported self-splicing fitness (ln) of each entry?
# Assay method text: self-splicing fitness, log relative to wild type (ln ratio); higher = more splicing; Tetrahymena group I intron in knt gene, E. coli kanamycin selection, DiMSum; sequences stand for … in CUCUCU…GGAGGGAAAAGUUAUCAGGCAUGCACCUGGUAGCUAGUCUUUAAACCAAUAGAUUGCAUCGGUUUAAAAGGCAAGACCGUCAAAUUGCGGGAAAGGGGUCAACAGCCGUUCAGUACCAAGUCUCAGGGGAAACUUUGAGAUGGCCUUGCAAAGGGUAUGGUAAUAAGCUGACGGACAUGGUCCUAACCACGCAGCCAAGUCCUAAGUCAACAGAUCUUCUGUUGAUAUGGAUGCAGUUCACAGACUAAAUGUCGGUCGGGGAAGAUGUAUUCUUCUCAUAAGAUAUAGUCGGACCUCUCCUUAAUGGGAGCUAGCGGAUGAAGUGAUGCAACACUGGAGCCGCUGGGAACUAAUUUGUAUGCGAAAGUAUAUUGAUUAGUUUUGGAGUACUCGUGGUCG;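 further: selection with 25 µg/mL kanamycin versus none on LB agar overnight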
# Assay context: 30 °C
Answers are plain numbers.

As a guide, the following entries are already answered.
{"columns": ["Ordered residues", "Attribute measured", "Value"],
 "data": [
  ["GUUGAGCAAUAUUACGAGAU", "self-splicing fitness (ln)", -2.7],
  ["GACUAGCAAUAUUACGCACA", "self-splicing fitness (ln)", -0.58],
  ["GCACAGCAAUAUUACGGUGA", "self-splicing fitness (ln)", -0.308],
  ["AUGUAGCAAUAUUACGAGAG", "self-splicing fitness (ln)", -4.62],
  ["AGAAAGCAAUAUUACGCCGU", "self-splicing fitness (ln)", -0.929]
]}

Give one value of self-splicing fitness (ln) per listed sequence.
1. CCUGAGCAAUAUUACGAUGA
2. AUGAAGCAAUAUUACGCGCU
3. ACUAAGCAAUAUUACGGUGA
4. UGUAAGCAAUAUUACGCGAA
5. GGAUAGCAAUAUUACGGUCG
6. AGCAAGCAAUAUUACGGGUA
7. ACCGAGCAAUAUUACGCAGG

Reply:
[-2.57, -0.561, -1.54, -2.68, -0.0227, -1.32, -4.2]

----------
# Assay method text: self-splicing fitness, log relative to wild type (ln ratio); higher = more splicing; Tetrahymena group I intron in knt gene, E. coli kanamycin selection, DiMSum; sequences stand for … in CUCUCU…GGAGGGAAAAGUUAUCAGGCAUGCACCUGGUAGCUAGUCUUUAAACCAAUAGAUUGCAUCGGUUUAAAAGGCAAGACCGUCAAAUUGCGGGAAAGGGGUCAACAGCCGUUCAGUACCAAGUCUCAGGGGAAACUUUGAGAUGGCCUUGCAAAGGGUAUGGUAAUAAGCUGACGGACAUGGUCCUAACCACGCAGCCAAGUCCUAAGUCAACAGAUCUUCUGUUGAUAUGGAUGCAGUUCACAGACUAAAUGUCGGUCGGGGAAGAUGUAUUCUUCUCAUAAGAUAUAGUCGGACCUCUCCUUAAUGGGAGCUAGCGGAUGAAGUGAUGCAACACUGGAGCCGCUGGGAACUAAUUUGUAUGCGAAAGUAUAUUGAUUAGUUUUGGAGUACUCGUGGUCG
# Assay context: 30 °C
Threshold check on self-splicing fitness (ln): at or above -2 gives Satisfied, strictly below gives Not satisfied.

Worked set:
{"columns": ["Ordered residues", "Category label"],
 "data": [
  ["CAGCAGCAAUAUUACGGUCA", "Not satisfied"],
  ["UCCCAGCAAUAUUACGUACG", "Not satisfied"],
  ["CGAAAGCAAUAUUACGUUGA", "Not satisfied"],
  ["CAGCAGCAAUAUUACGGUUA", "Satisfied"],
  ["GACAAGCAAUAUUACGAGGG", "Not satisfied"]
]}

Note: attention shifts to another entry.
Task item: Please indicate if the recorded self-splicing fitness (ln) for AUCGAGCAAUAUUACGAUUU meets or exceeds -2.
Reply: Satisfied

----------
# Assay method text: self-splicing fitness, log relative to wild type (ln ratio); higher = more splicing; Tetrahymena group I intron in knt gene, E. coli kanamycin selection, DiMSum; sequences stand for … in CUCUCU…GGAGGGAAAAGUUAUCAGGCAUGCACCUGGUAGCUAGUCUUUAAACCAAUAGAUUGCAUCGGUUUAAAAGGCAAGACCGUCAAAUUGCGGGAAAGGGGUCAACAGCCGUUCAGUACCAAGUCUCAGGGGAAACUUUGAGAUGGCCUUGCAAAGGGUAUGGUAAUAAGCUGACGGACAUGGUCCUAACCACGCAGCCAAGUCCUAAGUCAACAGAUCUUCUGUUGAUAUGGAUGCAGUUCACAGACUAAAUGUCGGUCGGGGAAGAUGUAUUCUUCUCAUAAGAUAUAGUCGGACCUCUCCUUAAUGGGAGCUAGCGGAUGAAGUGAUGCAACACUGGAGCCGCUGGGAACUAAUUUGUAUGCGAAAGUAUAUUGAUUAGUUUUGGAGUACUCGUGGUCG
# Assay context: 30 °C
Would you mind telling me the reported self-splicing fitness (ln) of each entry?
Answers are plain numbers.

{"columns": ["Ordered residues", "self-splicing fitness (ln)"],
 "data": [
  ["CCCUAGCAAUAUUACGUCCA", -2.95],
  ["AAUCAGCAAUAUUACGAAGC", -0.428],
  ["UCCAAGCAAUAUUACGCUAU", -3.98],
  ["UACGAGCAAUAUUACGCUAU", -2.4],
  ["AACGAGCAAUAUUACGCGGC", -2.71],
  ["CUACAGCAAUAUUACGUUCC", -2.48],
  ["GUAGAGCAAUAUUACGAUUG", -2.82],
  ["UCCAAGCAAUAUUACGUAUG", -4.08],
  ["UAGCAGCAAUAUUACGUCUU", -1.07]
]}

Here is the next item to consider.
Task item: Look up self-splicing fitness (ln): UUCUAGCAAUAUUACGUCAG
Reply: -3.16

----------
# Assay method text: self-splicing fitness, log relative to wild type (ln ratio); higher = more splicing; Tetrahymena group I intron in knt gene, E. coli kanamycin selection, DiMSum; sequences stand for … in CUCUCU…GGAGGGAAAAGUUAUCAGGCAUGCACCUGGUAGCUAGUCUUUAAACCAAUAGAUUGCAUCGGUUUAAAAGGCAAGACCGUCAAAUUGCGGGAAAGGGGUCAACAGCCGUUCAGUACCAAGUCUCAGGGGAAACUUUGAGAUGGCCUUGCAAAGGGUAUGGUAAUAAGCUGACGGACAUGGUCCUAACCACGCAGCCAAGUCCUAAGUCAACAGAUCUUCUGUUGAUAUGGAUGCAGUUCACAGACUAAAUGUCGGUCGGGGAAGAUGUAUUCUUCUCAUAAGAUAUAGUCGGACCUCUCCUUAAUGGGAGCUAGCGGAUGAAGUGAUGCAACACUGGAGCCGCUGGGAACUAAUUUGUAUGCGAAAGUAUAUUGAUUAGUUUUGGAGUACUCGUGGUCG
# Assay context: 37 °C
Threshold check on self-splicing fitness (ln): at or above -0.8 gives criterion met, strictly below gives criterion not met.

Worked set:
{"columns": ["Ordered residues", "Category label"],
 "data": [
  ["UGACAGCAAUAUUACGAUUU", "criterion met"],
  ["GAUCAGCAAUAUUACGACAC", "criterion met"],
  ["AGUCAGCAAUAUUACGAUGA", "criterion met"]
]}

Task item: Please indicate if the recorded self-splicing fitness (ln) for UCUGAGCAAUAUUACGUUGU meets or exceeds -0.8.
Reply: criterion not met

Task item: Please indicate if the recorded self-splicing fitness (ln) for AUUGAGCAAUAUUACGUUUU meets or exceeds -0.8.
Reply: criterion not met

Task item: Please indicate if the recorded self-splicing fitness (ln) for GACAAGCAAUAUUACGUAGA meets or exceeds -0.8.
Reply: criterion met

Task item: Please indicate if the recorded self-splicing fitness (ln) for GGAAAGCAAUAUUACGUGGA meets or exceeds -0.8.
Reply: criterion not met

Task item: Please indicate if the recorded self-splicing fitness (ln) for UGCUAGCAAUAUUACGUGGG meets or exceeds -0.8.
Reply: criterion not met

Task item: Please indicate if the recorded self-splicing fitness (ln) for UUUCAGCAAUAUUACGGGUA meets or exceeds -0.8.
Reply: criterion met

Task item: Please indicate if the recorded self-splicing fitness (ln) for UAAGAGCAAUAUUACGCUAG meets or exceeds -0.8.
Reply: criterion not met

Task item: Please indicate if the recorded self-splicing fitness (ln) for GGCAAGCAAUAUUACGGGUU meets or exceeds -0.8.
Reply: criterion met

Task item: Please indicate if the recorded self-splicing fitness (ln) for AGUGAGCAAUAUUACGCAUU meets or exceeds -0.8.
Reply: criterion not met

----------
Would you mind telling me the reported self-splicing fitness (ln) of each entry?
# Assay method text: self-splicing fitness, log relative to wild type (ln ratio); higher = more splicing; Tetrahymena group I intron in knt gene, E. coli kanamycin selection, DiMSum; sequences stand for … in CUCUCU…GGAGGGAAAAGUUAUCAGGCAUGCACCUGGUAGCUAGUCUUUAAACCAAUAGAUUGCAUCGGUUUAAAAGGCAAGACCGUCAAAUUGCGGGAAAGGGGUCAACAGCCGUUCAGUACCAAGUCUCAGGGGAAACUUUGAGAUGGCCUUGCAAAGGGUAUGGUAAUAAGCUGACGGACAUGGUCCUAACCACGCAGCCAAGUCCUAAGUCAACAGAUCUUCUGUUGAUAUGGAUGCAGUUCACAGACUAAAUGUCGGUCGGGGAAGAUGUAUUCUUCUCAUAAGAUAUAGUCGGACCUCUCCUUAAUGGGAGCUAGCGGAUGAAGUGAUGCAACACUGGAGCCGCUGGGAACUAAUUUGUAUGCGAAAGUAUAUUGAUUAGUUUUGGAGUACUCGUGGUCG
# Assay context: 30 °C
Numbers only.

As a guide, the following entries are already answered.
{"columns": ["Ordered residues", "Attribute measured", "Value"],
 "data": [
  ["CCUCAGCAAUAUUACGCUAC", "self-splicing fitness (ln)", -1.66],
  ["AUAAAGCAAUAUUACGGGGA", "self-splicing fitness (ln)", -1.96],
  ["GAAAAGCAAUAUUACGAGCC", "self-splicing fitness (ln)", -1.38],
  ["UCCUAGCAAUAUUACGUGAU", "self-splicing fitness (ln)", -3.3],
  ["CGAGAGCAAUAUUACGGUUG", "self-splicing fitness (ln)", -2.88]
]}

Give one value of self-splicing fitness (ln) per listed sequence.
1. CUCGAGCAAUAUUACGUUUA
2. CGUCAGCAAUAUUACGGCUG
3. CAAAAGCAAUAUUACGUAGU
4. GCUAAGCAAUAUUACGAGGU
5. GUGGAGCAAUAUUACGUCGU

Reply:
-3.22
-1.51
-3.12
-2.03
-1.65
